target_desc: Hepatocyte nuclear factor 4-alpha (Rattus norvegicus) (UniProt P22449)
run_description: Antagonist activity against rat HNF4alpha1 expressed in African green monkey CV1 cells assessed as reduction in endogenous agoinst-induced luciferase expression incubated for 24 hrs by firefly luciferase reporter gene assay relative to control
Assay type: functional, cell-based
setup_conditions: CV-1
quantity_name: Efficacy (%)
Provide the reading as a plain figure in %.

Query :: API: value(readout=Efficacy, system=Hepatocyte nuclear factor 4-alpha (Rattus norvegicus) (UniProt P22449)) for record Cc1cc2c(cc1C(OCc1ccccc1F)c1ccc(C(=O)O)cc1)C(C)(C)CCC2(C)C (centres undefined)
Result :: 106

Query :: API: value(readout=Efficacy, system=Hepatocyte nuclear factor 4-alpha (Rattus norvegicus) (UniProt P22449)) for record CCOc1cc2c(cc1/C(=N/OCc1cccc(F)c1F)c1ccc(C(=O)O)cc1)C(C)(C)CCC2(C)C
Result :: 118

Query :: API: value(readout=Efficacy, system=Hepatocyte nuclear factor 4-alpha (Rattus norvegicus) (UniProt P22449)) for record CCCCCCO/N=C(\c1ccc(C(=O)O)cc1)c1cc2c(cc1OCC)C(C)(C)CCC2(C)C
Result :: 120

Query :: API: value(readout=Efficacy, system=Hepatocyte nuclear factor 4-alpha (Rattus norvegicus) (UniProt P22449)) for record CCOc1cc2c(cc1/C(=N/Nc1cc(F)ccc1F)c1ccc(C(=O)O)cc1)C(C)(C)CCC2(C)C
Result :: 110

Query :: API: value(readout=Efficacy, system=Hepatocyte nuclear factor 4-alpha (Rattus norvegicus) (UniProt P22449)) for record CCCCOC(c1ccc(C(=O)O)cc1)c1cc2c(cc1OCC)C(C)(C)CCC2(C)C (centres undefined)
Result :: 108

Query :: API: value(readout=Efficacy, system=Hepatocyte nuclear factor 4-alpha (Rattus norvegicus) (UniProt P22449)) for record Cc1ccc(S(=O)(=O)Nc2c(C)c(Cc3ccc(C(=O)O)cc3)cc3c2C(C)(C)CCC3(C)C)cc1
Result :: 121

Query :: API: value(readout=Efficacy, system=Hepatocyte nuclear factor 4-alpha (Rattus norvegicus) (UniProt P22449)) for record Cc1ccc(C)c(N/N=C(\c2ccc(C(=O)O)cc2)c2cc3c(cc2C)C(C)(C)CCC3(C)C)c1
Result :: 103

Query :: API: value(readout=Efficacy, system=Hepatocyte nuclear factor 4-alpha (Rattus norvegicus) (UniProt P22449)) for record CC1(C)CCC(C)(C)c2cc(/C(=N\Nc3ccccc3)c3ccc(C(=O)O)cc3)ccc21
Result :: 100

Query :: API: value(readout=Efficacy, system=Hepatocyte nuclear factor 4-alpha (Rattus norvegicus) (UniProt P22449)) for record CCOc1cc2c(cc1/C(=N/OCCC(C)C)c1ccc(C(=O)O)cc1)C(C)(C)CCC2(C)C
Result :: 119

* * *

Entries with reported pKi on Hepatocyte nuclear factor 4-alpha (Homo sapiens, UniProt P41235)
Sequence (P41235 whole entry): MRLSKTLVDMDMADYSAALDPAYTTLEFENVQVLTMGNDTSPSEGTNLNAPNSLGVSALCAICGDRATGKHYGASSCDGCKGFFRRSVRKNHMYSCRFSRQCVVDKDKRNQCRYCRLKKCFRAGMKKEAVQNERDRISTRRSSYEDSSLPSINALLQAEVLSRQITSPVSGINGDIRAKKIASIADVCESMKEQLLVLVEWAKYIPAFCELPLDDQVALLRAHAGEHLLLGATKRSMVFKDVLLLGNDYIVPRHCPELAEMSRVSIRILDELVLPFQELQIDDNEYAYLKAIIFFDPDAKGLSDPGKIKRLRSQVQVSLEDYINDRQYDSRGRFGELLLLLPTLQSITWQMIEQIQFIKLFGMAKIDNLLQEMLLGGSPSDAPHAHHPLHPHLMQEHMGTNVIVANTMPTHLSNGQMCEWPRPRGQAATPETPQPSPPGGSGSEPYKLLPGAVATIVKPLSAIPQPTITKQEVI
Value format note: pKi is -log10 of concentration (mol/L); just state the number.

Query :: Please look up its pKi: Cc1ccc(C)c(N/N=C(\c2ccc(C(=O)O)cc2)c2cc3c(cc2C)C(C)(C)CCC3(C)C)c1
Result :: 6.00

Query :: Please look up its pKi: Cc1c(C(=O)c2ccc(C(=O)O)cc2)cc2c(c1[N+](=O)[O-])C(C)(C)CCC2(C)C
Result :: 6.78

Query :: Please look up its pKi: Cc1c(C(=O)c2ccc(C(=O)O)cc2)cc2c(c1[N+](=O)[O-])OCCC2(C)C
Result :: 5.66

Query :: Please look up its pKi: Cc1cc2c(c(O)c1C(=O)c1ccc(C(=O)O)cc1)C(C)(C)CCC2(C)C
Result :: 6.15

Query :: Please look up its pKi: CC1(C)CCC(C)(C)c2cc(/C(=N\Nc3ccccc3)c3ccc(C(=O)O)cc3)ccc21
Result :: 6.29

Query :: Please look up its pKi: CCOc1cc2c(cc1C(=O)c1ccc(C(=O)O)cc1)C(C)(C)CCC2(C)C
Result :: 6.96

Query :: Please look up its pKi: Cc1cc2c(cc1C(OCc1ccc(SC(F)(F)F)cc1)c1ccc(C(=O)O)cc1)C(C)(C)CCC2(C)C (stereo not drawn)
Result :: 5.92

Query :: Please look up its pKi: CC1(C)CCC(C)(C)c2c1cc(C(=O)c1ccc(C(=O)O)cc1)c(OCC(F)F)c2[N+](=O)[O-]
Result :: 6.79

* * *

target_desc: Hepatocyte nuclear factor 4-alpha (Rattus norvegicus)
run_description: Antagonist activity against rat HNF4alpha1 expressed in African green monkey CV1 cells assessed as reduction in endogenous agoinst-induced luciferase expression incubated for 24 hrs by firefly luciferase reporter gene assay
Assay type: functional, cell-based, CV-1
quantity_name: IC50 (nM)
Provide the reading as a plain figure in nM.

Query :: Please look up its IC50: CCCCOC(c1ccc(C(=O)O)cc1)c1cc2c(cc1OCC)C(C)(C)CCC2(C)C (stereo not given)
Result :: 4

Query :: Please look up its IC50: CC1(C)CCC(C)(C)c2cc(/C(=N\Nc3ccccc3)c3ccc(C(=O)O)cc3)ccc21
Result :: 103

Query :: Please look up its IC50: CCOc1cc2c(cc1/C(=N/OCc1cccc(F)c1F)c1ccc(C(=O)O)cc1)C(C)(C)CCC2(C)C
Result :: 35

Query :: Please look up its IC50: CCOc1cc2c(cc1/C(=N/OCCC(C)C)c1ccc(C(=O)O)cc1)C(C)(C)CCC2(C)C
Result :: 3

Query :: Please look up its IC50: Cc1cc2c(cc1C(OCc1ccccc1F)c1ccc(C(=O)O)cc1)C(C)(C)CCC2(C)C (stereo not given)
Result :: 4

* * *

Answer each item with its documented pEC50.
target_desc: Hepatocyte nuclear factor 4-alpha (Rattus norvegicus, UniProt P22449)
Sequence (P22449 whole entry): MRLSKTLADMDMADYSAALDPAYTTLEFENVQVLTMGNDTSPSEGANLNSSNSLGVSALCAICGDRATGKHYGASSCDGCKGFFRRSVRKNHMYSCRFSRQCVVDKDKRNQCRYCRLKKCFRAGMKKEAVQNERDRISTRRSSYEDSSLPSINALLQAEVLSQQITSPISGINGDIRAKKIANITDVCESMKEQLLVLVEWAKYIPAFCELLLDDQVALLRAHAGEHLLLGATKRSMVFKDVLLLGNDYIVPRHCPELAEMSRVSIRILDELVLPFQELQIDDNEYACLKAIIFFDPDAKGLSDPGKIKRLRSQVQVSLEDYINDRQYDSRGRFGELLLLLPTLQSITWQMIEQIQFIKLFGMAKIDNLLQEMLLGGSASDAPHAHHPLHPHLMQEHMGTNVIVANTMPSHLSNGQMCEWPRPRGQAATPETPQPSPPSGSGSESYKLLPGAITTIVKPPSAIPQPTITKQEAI
run_description: Agonist activity at rat HNF4alpha1 expressed in African green monkey CV1 cells incubated for 24 hrs by firefly luciferase reporter gene assay
Value format note: pEC50 is -log10 of concentration (mol/L); just state the number.

Query :: Please look up its pEC50: CCOc1cc2c(cc1C(=O)c1ccc(C(=O)O)cc1)C(C)(C)CCC2(C)C
Result :: 6.58

Query :: Please look up its pEC50: Cc1c(C(=O)c2ccc(C(=O)O)cc2)cc2c(c1[N+](=O)[O-])C(C)(C)CCC2(C)C
Result :: 5.65

Query :: Please look up its pEC50: Cc1c(C(=O)c2ccc(C(=O)O)cc2)cc2c(c1[N+](=O)[O-])OCCC2(C)C
Result :: 5.53

Query :: Please look up its pEC50: CCOc1cc2c(cc1C(=O)c1ccc(C(=O)C(=O)O)cc1)C(C)(C)CCC2(C)C
Result :: 5.94

Query :: Please look up its pEC50: CCOc1cc2c(cc1C(=O)c1ccc(C(=O)O)cc1)C(C)(C)CCO2
Result :: 5.65

Query :: Please look up its pEC50: CC1(C)CCC(C)(C)c2cc(C(=O)c3ccc(C(=O)O)cc3)c(OCC(F)(F)F)cc21
Result :: 5.66

Query :: Please look up its pEC50: CC1(C)CCC(C)(C)c2c1cc(C(=O)c1ccc(C(=O)O)cc1)c(OCC(F)F)c2[N+](=O)[O-]
Result :: 6.23

Query :: Please look up its pEC50: Cc1cc2c(c(O)c1C(=O)c1ccc(C(=O)O)cc1)C(C)(C)CCC2(C)C
Result :: 5.58

Query :: Please look up its pEC50: COc1c(C(=O)c2ccc(C(=O)O)cc2)cc2c(c1C)N(C)CCC2(C)C
Result :: 5.55

* * *

Answer each item with its documented Ki.
target_desc: Retinoic acid receptor RXR-alpha (Homo sapiens, UniProt P19793)
Sequence (P19793 whole entry): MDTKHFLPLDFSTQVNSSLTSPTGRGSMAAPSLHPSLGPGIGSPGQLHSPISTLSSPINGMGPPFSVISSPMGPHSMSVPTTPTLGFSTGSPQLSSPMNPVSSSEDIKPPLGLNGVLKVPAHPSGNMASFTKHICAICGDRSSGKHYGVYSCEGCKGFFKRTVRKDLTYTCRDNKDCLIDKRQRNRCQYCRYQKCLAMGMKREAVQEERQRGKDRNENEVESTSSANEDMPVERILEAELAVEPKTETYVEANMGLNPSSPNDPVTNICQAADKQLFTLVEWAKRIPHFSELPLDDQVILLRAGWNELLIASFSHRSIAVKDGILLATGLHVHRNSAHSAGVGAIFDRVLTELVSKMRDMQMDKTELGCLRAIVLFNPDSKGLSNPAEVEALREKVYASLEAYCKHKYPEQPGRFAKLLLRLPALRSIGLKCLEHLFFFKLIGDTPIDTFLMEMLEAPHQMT
run_description: Displacement of [3H]9-cis-retinoic acid from RXRalpha (unknown origin) by radioligand binding assay

Query :: Please look up its Ki: Cc1cc2c(c(O)c1C(=O)c1ccc(C(=O)O)cc1)C(C)(C)CCC2(C)C
Result :: > 30 µM

Query :: Please look up its Ki: Cc1c(C(=O)c2ccc(C(=O)O)cc2)cc2c(c1[N+](=O)[O-])C(C)(C)CCC2(C)C
Result :: > 5 µM

Query :: Please look up its Ki: CCOc1cc2c(cc1C(=O)c1ccc(C(=O)C(=O)O)cc1)C(C)(C)CCC2(C)C
Result :: > 10 µM

Query :: Please look up its Ki: Cc1ccc(C)c(N/N=C(\c2ccc(C(=O)O)cc2)c2cc3c(cc2C)C(C)(C)CCC3(C)C)c1
Result :: > 30 µM
